Recorded values, source the supplement of paper PMC3334620.

# PBM E-score values compiled below
Target: Hmlalpha2 (UniProt P0CY09)
Sequence: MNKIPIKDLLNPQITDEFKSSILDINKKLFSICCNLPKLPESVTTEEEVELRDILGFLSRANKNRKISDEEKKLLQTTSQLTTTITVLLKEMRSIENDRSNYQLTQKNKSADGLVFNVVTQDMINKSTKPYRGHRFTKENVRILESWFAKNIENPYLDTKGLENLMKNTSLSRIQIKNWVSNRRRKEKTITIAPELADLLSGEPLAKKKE
Assay: PBM E-score (8-mer binding enrichment) (E-score (-0.5 to 0.5)); higher = stronger / more preferred TF binding
Conditions: protein concentration: 200 nM; construct: GST-full length
The full ranking holds about 33,000 sequences; the median of “E-score (-0.5 to 0.5)” is about -0.04, and the highest 2% start at about 0.36. For the sample, the highest values were picked, then their nearest neighbours and some sequences at random.
Reported Endpoint: PBM E-score

Sequence String: ACCTAAAC
Result Value: 0.098

Sequence String: AGGTCCAA
Result Value: -0.112

Sequence String: CTGCCAGC
Result Value: -0.238

Sequence String: GTTCAACA
Result Value: 0.367

Sequence String: ATCGCGGA
Result Value: -0.302

Sequence String: GTGTACTA
Result Value: 0.311

Sequence String: AGGTACAA
Result Value: 0.21

Sequence String: CGTGCCTC
Result Value: -0.119

Sequence String: CCACGATC
Result Value: 0.172

Sequence String: GAAGGACC
Result Value: -0.245

Sequence String: AGACGATC
Result Value: -0.29

Sequence String: GCACGATA
Result Value: 0.154

Sequence String: ATGTACTA
Result Value: 0.397

Sequence String: GAGTTCGC
Result Value: -0.169

Sequence String: GGATGGAA
Result Value: -0.175

Sequence String: GATTCAAC
Result Value: 0.0589

Sequence String: ATGACACG
Result Value: 0.404

Sequence String: ACACGATC
Result Value: 0.426

Sequence String: CACAGGTC
Result Value: -0.101

Sequence String: ATCTTCTA
Result Value: -0.0325

Sequence String: ATGTACAT
Result Value: 0.457

Sequence String: ATATGCCC
Result Value: -0.274

Sequence String: ATGAAACC
Result Value: 0.0645

Sequence String: ATGTACTG
Result Value: 0.351

Sequence String: AAACGATG
Result Value: 0.0541

Sequence String: AGGTACAT
Result Value: 0.288

Sequence String: ATTTGCTG
Result Value: 0.024

Sequence String: GGATCCAA
Result Value: -0.0601

Sequence String: ATGTACGA
Result Value: 0.281

Sequence String: ATGAGTCG
Result Value: -0.0768

Sequence String: TATCAACA
Result Value: 0.365

Sequence String: CACCGACG
Result Value: 0.00164

Sequence String: ACACGAAG
Result Value: 0.358

Sequence String: TCGTTGCA
Result Value: 0.0513

Sequence String: CCATTAAG
Result Value: -0.0773

Sequence String: CAGTACCG
Result Value: -0.142

Sequence String: ACTCCTCC
Result Value: -0.17

Sequence String: AAGACACG
Result Value: 0.373

Sequence String: CATCAACA
Result Value: 0.297

Sequence String: CCTAAGAG
Result Value: -0.136

Sequence String: ACAGTAGC
Result Value: -0.0946

Sequence String: ATGTACAA
Result Value: 0.433

Sequence String: GGCCAGCC
Result Value: -0.192

Sequence String: ATTCAACA
Result Value: 0.352

Sequence String: CGGAGGGC
Result Value: -0.293

Sequence String: CCACGATA
Result Value: -0.11

----------
Biological target: Hmlalpha2 (UniProt P0CY09)
Sequence: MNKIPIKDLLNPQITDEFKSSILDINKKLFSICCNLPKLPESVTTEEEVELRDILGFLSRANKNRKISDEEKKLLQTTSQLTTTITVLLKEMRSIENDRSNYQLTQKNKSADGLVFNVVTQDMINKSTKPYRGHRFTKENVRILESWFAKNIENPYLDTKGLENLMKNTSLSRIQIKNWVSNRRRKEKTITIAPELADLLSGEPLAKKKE
Test: PBM E-score (8-mer binding enrichment) (E-score (-0.5 to 0.5)); higher = stronger / more preferred TF binding
Settings: protein concentration: 200 nM; construct: GST-full length
Whole data set: some 33,000 sequences, median “E-score (-0.5 to 0.5)” near -0.04, cut for the highest 2% near 0.36. The entries come from a sample that favours the highest values as a whole.

Sequence String: GAAACCAA
Assayed System: Hmlalpha2 (UniProt P0CY09)
PBM E-score: 0.00698
--
Sequence String: GGGCGAAC
Assayed System: Hmlalpha2 (UniProt P0CY09)
PBM E-score: -0.178
--
Sequence String: ACATGCTA
Assayed System: Hmlalpha2 (UniProt P0CY09)
PBM E-score: 0.379
--
Sequence String: TATTAATA
Assayed System: Hmlalpha2 (UniProt P0CY09)
PBM E-score: 0.173
--
Sequence String: GTACGCAA
Assayed System: Hmlalpha2 (UniProt P0CY09)
PBM E-score: 0.155
--
Sequence String: TAAGCAGA
Assayed System: Hmlalpha2 (UniProt P0CY09)
PBM E-score: 0.00375
--
Sequence String: GTACGTAA
Assayed System: Hmlalpha2 (UniProt P0CY09)
PBM E-score: 0.34
--
Sequence String: TTACACAA
Assayed System: Hmlalpha2 (UniProt P0CY09)
PBM E-score: 0.478
--
Sequence String: CATTAACA
Assayed System: Hmlalpha2 (UniProt P0CY09)
PBM E-score: 0.409
--
Sequence String: TTACGTAA
Assayed System: Hmlalpha2 (UniProt P0CY09)
PBM E-score: 0.426
--
Sequence String: ACCATGTA
Assayed System: Hmlalpha2 (UniProt P0CY09)
PBM E-score: 0.467
--
Sequence String: CTACGTAA
Assayed System: Hmlalpha2 (UniProt P0CY09)
PBM E-score: 0.318
--
Sequence String: GCCATGTA
Assayed System: Hmlalpha2 (UniProt P0CY09)
PBM E-score: 0.457
--
Sequence String: CCTTTACA
Assayed System: Hmlalpha2 (UniProt P0CY09)
PBM E-score: 0.448
--
Sequence String: GCCATGCA
Assayed System: Hmlalpha2 (UniProt P0CY09)
PBM E-score: 0.0965
--
Sequence String: CTACACCC
Assayed System: Hmlalpha2 (UniProt P0CY09)
PBM E-score: 0.0904
--
Sequence String: TATTAAAA
Assayed System: Hmlalpha2 (UniProt P0CY09)
PBM E-score: 0.24
--
Sequence String: ATACGTAC
Assayed System: Hmlalpha2 (UniProt P0CY09)
PBM E-score: 0.242
--
Sequence String: ACATGCGG
Assayed System: Hmlalpha2 (UniProt P0CY09)
PBM E-score: 0.289
--
Sequence String: GCTATTCA
Assayed System: Hmlalpha2 (UniProt P0CY09)
PBM E-score: 0.0214
--
Sequence String: TTACGCAA
Assayed System: Hmlalpha2 (UniProt P0CY09)
PBM E-score: 0.391
--
Sequence String: ACCATGTG
Assayed System: Hmlalpha2 (UniProt P0CY09)
PBM E-score: 0.188
--
Sequence String: ATACTATC
Assayed System: Hmlalpha2 (UniProt P0CY09)
PBM E-score: 0.0717
--
Sequence String: AATTAACC
Assayed System: Hmlalpha2 (UniProt P0CY09)
PBM E-score: 0.104
--
Sequence String: CGACAATC
Assayed System: Hmlalpha2 (UniProt P0CY09)
PBM E-score: -0.19
--
Sequence String: AGTAGTGC
Assayed System: Hmlalpha2 (UniProt P0CY09)
PBM E-score: -0.153
--
Sequence String: TCACACAA
Assayed System: Hmlalpha2 (UniProt P0CY09)
PBM E-score: 0.23
--
Sequence String: TCTTTACA
Assayed System: Hmlalpha2 (UniProt P0CY09)
PBM E-score: 0.445
--
Sequence String: ACTCCCAC
Assayed System: Hmlalpha2 (UniProt P0CY09)
PBM E-score: -0.352
--
Sequence String: ACACCCAT
Assayed System: Hmlalpha2 (UniProt P0CY09)
PBM E-score: -0.0488
--
Sequence String: ATACGTAA
Assayed System: Hmlalpha2 (UniProt P0CY09)
PBM E-score: 0.379
--
Sequence String: TCTTTAAA
Assayed System: Hmlalpha2 (UniProt P0CY09)
PBM E-score: 0.0801
--
Sequence String: AATTAACA
Assayed System: Hmlalpha2 (UniProt P0CY09)
PBM E-score: 0.425
--
Sequence String: TCATTCCA
Assayed System: Hmlalpha2 (UniProt P0CY09)
PBM E-score: -0.147
--
Sequence String: ACCATGTC
Assayed System: Hmlalpha2 (UniProt P0CY09)
PBM E-score: 0.296
--
Sequence String: TCTTTGCA
Assayed System: Hmlalpha2 (UniProt P0CY09)
PBM E-score: 0.0746
--
Sequence String: CCTTTACC
Assayed System: Hmlalpha2 (UniProt P0CY09)
PBM E-score: -0.204
--
Sequence String: ATACGCAA
Assayed System: Hmlalpha2 (UniProt P0CY09)
PBM E-score: 0.347
--
Sequence String: CATTAACG
Assayed System: Hmlalpha2 (UniProt P0CY09)
PBM E-score: 0.277
--
Sequence String: CCCATGGA
Assayed System: Hmlalpha2 (UniProt P0CY09)
PBM E-score: -0.1
--
Sequence String: ATGCCTAC
Assayed System: Hmlalpha2 (UniProt P0CY09)
PBM E-score: -0.224
--
Sequence String: CCCATGTA
Assayed System: Hmlalpha2 (UniProt P0CY09)
PBM E-score: 0.447
--
Sequence String: CCACACAA
Assayed System: Hmlalpha2 (UniProt P0CY09)
PBM E-score: -0.0216
--
Sequence String: AACCTAGA
Assayed System: Hmlalpha2 (UniProt P0CY09)
PBM E-score: -0.109
--
Sequence String: CCCATGTC
Assayed System: Hmlalpha2 (UniProt P0CY09)
PBM E-score: 0.161
--
Sequence String: CCATGCTA
Assayed System: Hmlalpha2 (UniProt P0CY09)
PBM E-score: 0.0439
